- measurementTarget: SARS-CoV-2 spike pseudotyped lentivirus (PV) (SARS-CoV-2 (Wuhan-Hu-1)) (UniProt P0DTC2)
- assayInfo: dot blot (filter binding)
measurementKind: Kd (nM)

sequence: TTACGTCAAGGTGTCACTCCACGGGTTTGGCGTCGGGCCTGGCGGGGGGATAGTGCGGTGGAAGCATCTCTTTGGCGTG [MSA5]
measurementTarget: SARS-CoV-2 spike pseudotyped lentivirus (PV) (SARS-CoV-2 (Wuhan-Hu-1)) (UniProt P0DTC2)
experimentalResult: 0.0118
--
sequence: TTACGTCAAGGTGTCACTCCCACTTTCCGGTTAATTTATGCTCTACCCGTCCACCTACCGGAAGCATCTCTTTGGCGTG [MSA1]
measurementTarget: SARS-CoV-2 spike pseudotyped lentivirus (PV) (SARS-CoV-2 (Wuhan-Hu-1)) (UniProt P0DTC2)
experimentalResult: 0.0227
